- tgt: HLA-A*0201 (human)
The following binders are shown together with reported relative binding ratio (IC50 of standard peptide / IC50 of test peptide) values.
Would you mind answering with just the numeric figure?

Give the value of relative binding ratio (IC50 of standard peptide / IC50 of test peptide) reported for the following: CLYLHIQSL (modifications not checked)
0.076

Answer with reported relative binding ratio (IC50 of standard peptide / IC50 of test peptide) of VVYRDSIPHA (modifications not checked) [HPV18 E6 peptide … (position 54)]
0.0003

Could you please provide reported relative binding ratio (IC50 of standard peptide / IC50 of test peptide) for ALDGNLVSM (modifications not checked) [HPV16 E1 … (position 539)] ? Thanks!
0.027

Retrieve relative binding ratio (IC50 of standard peptide / IC50 of test peptide) measured for DLLCHEQL (modifications not checked) [HPV18 E7 peptide DLLCHEQL (position 24)] and print it.
0.0001

Let me know recorded relative binding ratio (IC50 of standard peptide / IC50 of test peptide) for ALKRFLQGI (modifications not checked) [HPV16 E1 … (position 459)] , thanks.
0.0062

Output measured relative binding ratio (IC50 of standard peptide / IC50 of test peptide) for this item: CLYLHIQSLA (modifications not checked)
0.0032
